Target: Somatostatin Receptor (SSTR) Subtype SSTR 2B (Homo sapiens, UniProt P30874)
Construct: expressed in transfected cells; host or cells: CHO cells
Sequence (P30874 1-356 isoform P30874-2): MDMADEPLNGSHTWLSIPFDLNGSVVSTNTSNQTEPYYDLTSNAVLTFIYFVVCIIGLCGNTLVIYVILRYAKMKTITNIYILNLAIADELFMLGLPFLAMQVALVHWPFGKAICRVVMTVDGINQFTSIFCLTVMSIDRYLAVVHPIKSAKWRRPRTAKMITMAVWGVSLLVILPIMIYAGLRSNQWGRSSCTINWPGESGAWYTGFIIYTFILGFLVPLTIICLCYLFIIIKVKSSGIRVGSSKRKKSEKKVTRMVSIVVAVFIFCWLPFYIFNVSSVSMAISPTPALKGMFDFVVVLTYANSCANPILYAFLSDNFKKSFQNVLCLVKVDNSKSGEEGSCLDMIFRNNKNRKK
Assay: Inhibition of radioactive iodinated somatostatin (SRIF-14) binding, CHO cells expressing SSTR 2B
Conditions: Conc. 10^-7 M, read-out: percent inhibition of radioactive iodinated somatostatin (SRIF-14) binding, SSTR 2B
Listed below: inhibition at 0.1 µM values for each entry.
The reply should be a number in %, with the unit left off.

INPUT: Reported inhibition at 0.1 µM for C[C@@H](O)[C@H](NC(=O)CN1CCCNC(=O)CN(C(=O)[C@H](N)Cc2ccccc2)CC(=O)N[C@@H](Cc2ccccc2)C(=O)N[C@H](Cc2c[nH]c3ccccc23)C(=O)N[C@@H](CCCCN)C(=O)N[C@@H]([C@@H](C)O)C1=O)C(N)=O [PTR 3004] : what is it?
OUTPUT: 0
